Measured values drawn from patent US10208089B2 for this set.

# Measurement Protocol: in vivo
# Run Parameters: male, cynomolgus monkey, iv, 3 mg/kg
Endpoint Label: half-life (h)

1. CCC[C@H](NC(=O)[C@@H](NC(=O)[C@@H]1CCCN1C(=O)[C@H](Cc1ccc(O)cc1)NC(=O)[C@H](CCC(=O)O)NC(=O)[C@H](Cc1c[nH]c2ncccc12)NC(=O)[C@H](Cc1ccc(O)cc1)NC(=O)[C@@H](NC(=O)[C@H](CC(=O)O)NC(=O)[C@@H]1CSCc2cccc(c2)CSC[C@H](NC(C)=O)C(=O)N[C@@H](C(C)C)C(=O)N[C@@H](CCC(=O)O)C(=O)N[C@@H](CCCNC(=N)N)C(=O)N[C@@H](Cc2ccccc2)C(=O)N1)C(C)(C)C)C1CCCCC1)C(N)=O [Compound R3152] | 10.9
